Please provide measured koff for the entries that follow.
Target: T1, Rat serum albumin (rat, UniProt P02770 25-608)
T1 construct: bought; immobilised on a CM5 chip by amine coupling; also called Rat SA
Test: SPR, SA on chip, VHH 300 nM, 25 C
Numeric answer plus unit only.

Item VHH moiety 9 (MC6.1C22-R27A) (VHH) VHH: EVQLLESGGGLVQPGGSLRLSCAASGAYIDETAVAWFRQAPGKEREFVAGIGGGVDITYYADSVKGRFTISRDNSKNTLYLQMNSLRPEDTAVYYCAARPGRPLITSKVADLYPYWGQGTLVTVSS has what recorded koff?
0.011 s⁻¹

Same thing, different binder: VHH moiety 19 (MC6.1C22-R102S) (VHH) VHH: EVQLLESGGGLVQPGGSLRLSCAASGRYIDETAVAWFRQAPGKEREFVAGIGGGVDITYYADSVKGRFTISRDNSKNTLYLQMNSLRPEDTAVYYCAARPGSPLITSKVADLYPYWGQGTLVTVSS
0.015 s⁻¹

Cool, now VHH moiety 40 (MC6.1C95.43) (VHH) VHH: EVQLLESGGGLVQPGGSLRLSCAASGRYIDETAVAWFRQAPGKGREFVAGIGGGVDITYYADSVKGRFTISRDNSKNTLYLQMNSLRPEDTAVYYCGTRPGRPLITSKVADLYPYWGQGTLVTVSS
0.0053 s⁻¹

Also VHH moiety 8 (MC6.1C22-G26Y) (VHH) VHH: EVQLLESGGGLVQPGGSLRLSCAASYRYIDETAVAWFRQAPGKEREFVAGIGGGVDITYYADSVKGRFTISRDNSKNTLYLQMNSLRPEDTAVYYCAARPGRPLITSKVADLYPYWGQGTLVTVSS , if possible.
0.0075 s⁻¹
